target: Human 5-HT6 (Homo sapiens); construct: expressed in transfected cells; assay: 5-HT6 receptor binding assay ([3H]5-HT displacement, SPA), human receptor; settings: cloned human 5-HT6 receptor, cell membranes, [3H]5-HT 5 nM; read-out: Human 5-HT6 binding IC50
Sequence (P50406 whole entry): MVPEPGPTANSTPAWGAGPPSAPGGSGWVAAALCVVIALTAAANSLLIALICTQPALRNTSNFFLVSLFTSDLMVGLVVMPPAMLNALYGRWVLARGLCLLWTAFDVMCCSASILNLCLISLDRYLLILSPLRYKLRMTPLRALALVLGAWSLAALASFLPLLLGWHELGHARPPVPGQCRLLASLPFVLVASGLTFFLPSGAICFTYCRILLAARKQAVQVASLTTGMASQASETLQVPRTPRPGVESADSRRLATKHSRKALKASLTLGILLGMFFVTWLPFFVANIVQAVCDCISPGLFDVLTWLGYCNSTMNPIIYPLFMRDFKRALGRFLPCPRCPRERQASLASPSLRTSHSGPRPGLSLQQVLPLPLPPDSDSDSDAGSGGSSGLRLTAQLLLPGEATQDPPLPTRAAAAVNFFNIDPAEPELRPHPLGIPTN
ASSAY READOUT: IC50
Form field: result (number plus unit)

# count of solved cases: 6
O=S(=O)(c1cccc(F)c1)n1cc(CCNCc2cccc(OCC(F)(F)C(F)F)c2)c2ccc(F)cc21 [Example 11] = 0.371 nM
COc1cccc(S(=O)(=O)n2cc(CCNCc3cccc(OCC(F)(F)C(F)F)c3)c3ccc(F)cc32)c1 [Example 3] = 0.593 nM
O=S(=O)(c1ccc(F)c(Cl)c1)n1cc(CCNCc2cccc(OCC(F)(F)C(F)F)c2)c2ccc(F)cc21 [Example 9] = 8.85 nM
O=S(=O)(c1cccc(C(F)(F)F)c1)n1cc(CCNCc2cccc(OCC(F)(F)C(F)F)c2)c2ccc(F)cc21 [Example 10] = 0.626 nM
O=S(=O)(c1cccc(Cl)c1)n1cc(CCNCc2cccc(OCC(F)(F)C(F)F)c2)c2ccc(F)cc21 [Example 4] = 0.805 nM
O=S(=O)(c1cc(Cl)cc(Cl)c1)n1cc(CCNCc2cccc(OCC(F)(F)C(F)F)c2)c2ccc(F)cc21 [Example 5] = 2.88 nM

Qu. Under Human 5-HT6 (Homo sapiens): IC50 value of O=S(=O)(c1ccc(Cl)cc1)n1cc(CCNCc2cccc(OCC(F)(F)C(F)F)c2)c2ccc(F)cc21 [Example 7] ?
Ans. 3.4 nM

---

molecular target: Mouse 5-HT6 (Mus musculus); construct: expressed in transfected cells; test: 5-HT6 receptor binding assay ([3H]5-HT displacement, SPA), mouse receptor; settings: cloned mouse 5-HT6 receptor, cell membranes, [3H]5-HT 5 nM; read-out: Mouse 5-HT6 binding IC50
The molecules listed here are annotated with their pIC50.
Interpret pIC50 as the negative base-10 log of the concentration measured in mol/L.

Some molecules with known pIC50 results, for comparison:
O=S(=O)(c1cccc(C(F)(F)F)c1)n1cc(CCNCc2cccc(OCC(F)(F)C(F)F)c2)c2ccc(F)cc21 = 7.22
O=S(=O)(c1cc(Cl)cc(Cl)c1)n1cc(CCNCc2cccc(OCC(F)(F)C(F)F)c2)c2ccc(F)cc21 = 6.83
O=S(=O)(c1ccc(Cl)cc1)n1cc(CCNCc2cccc(OCC(F)(F)C(F)F)c2)c2ccc(F)cc21 = 8.14
O=S(=O)(c1cccc(Cl)c1)n1cc(CCNCc2cccc(OCC(F)(F)C(F)F)c2)c2ccc(F)cc21 = 7.22

--- query ---
Qu. Which measured pIC50 belongs to `O=S(=O)(c1cccc(F)c1)n1cc(CCNCc2cccc(OCC(F)(F)C(F)F)c2)c2ccc(F)cc21` , tested on Mouse 5-HT6 (Mus musculus)?
Ans. 7.75

---

Molecular target: Mouse 5-HT6 (Mus musculus, UniProt Q9R1C8)
Construct: expressed in transfected cells
Sequence (Q9R1C8 whole entry): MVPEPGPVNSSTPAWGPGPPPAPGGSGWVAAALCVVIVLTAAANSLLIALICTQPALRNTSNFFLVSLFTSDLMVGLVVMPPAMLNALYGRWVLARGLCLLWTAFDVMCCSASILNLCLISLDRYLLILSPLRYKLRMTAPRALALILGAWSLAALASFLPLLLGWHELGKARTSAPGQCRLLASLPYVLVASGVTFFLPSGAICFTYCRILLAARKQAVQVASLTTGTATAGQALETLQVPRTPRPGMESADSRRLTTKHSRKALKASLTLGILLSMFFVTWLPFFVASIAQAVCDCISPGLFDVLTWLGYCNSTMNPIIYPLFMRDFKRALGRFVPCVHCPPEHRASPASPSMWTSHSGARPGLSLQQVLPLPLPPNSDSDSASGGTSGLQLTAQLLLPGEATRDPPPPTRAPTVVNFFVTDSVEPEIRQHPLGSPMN
Experiment: 5-HT6 receptor binding assay ([3H]5-HT displacement, SPA), mouse receptor
Details: cloned mouse 5-HT6 receptor, cell membranes, [3H]5-HT 5 nM; read-out: Mouse 5-HT6 binding IC50
Protocol: 5-HT6 Receptor Binding Assay Affinity (IC50) of a compound for cloned human, rat, or mouse 5-HT6 receptor was measured by its ability to displace [^3H]5-HT using cell membranes prepared from cultured cells and scintillation proximity assay (SPA) beads that bind to cell membranes (Catalog No. RPNQ0001; GE Healthcare Life Sciences, Piscataway, N.J.). […] Following 1 h incubation at room temperature, the radioactivity bound to the cell membranes was measured on a scintillation counter.
Quick list: pIC50 per entry.
As a rule, pIC50 stands for the negative log10 of the concentration, concentration in M.

COc1ccc(S(=O)(=O)n2cc(CCNCc3cccc(OCC(F)(F)C(F)F)c3)c3ccc(F)cc32)cc1 = 6.73
COc1cccc(S(=O)(=O)n2cc(CCNCc3cccc(OCC(F)(F)C(F)F)c3)c3ccc(F)cc32)c1 = 6.77
Cl.O=S(=O)(c1ccccc1)n1cc(CCNCc2cccc(OCC(F)(F)C(F)F)c2)c2ccc(F)cc21 = 8.70

Qu. I am curious: what pIC50 value has been reported for `O=S(=O)(c1ccc(F)c(Cl)c1)n1cc(CCNCc2cccc(OCC(F)(F)C(F)F)c2)c2ccc(F)cc21` ?
Ans. 6.90

Qu. Entry `O=S(=O)(c1ccc(Br)cc1)n1cc(CCNCc2cccc(OCC(F)(F)C(F)F)c2)c2ccc(F)cc21` : reported pIC50 = ?
Ans. 7.81

Qu. Field request: pIC50 | item: `CC(C)S(=O)(=O)n1cc(CCNCc2cccc(OCC(F)(F)C(F)F)c2)c2ccc(F)cc21`
Ans. 7.24
